Target: bovine intestinal alkaline phosphatase (Bos taurus (Bovine), UniProt P19111)
Sequence (P19111 20-506): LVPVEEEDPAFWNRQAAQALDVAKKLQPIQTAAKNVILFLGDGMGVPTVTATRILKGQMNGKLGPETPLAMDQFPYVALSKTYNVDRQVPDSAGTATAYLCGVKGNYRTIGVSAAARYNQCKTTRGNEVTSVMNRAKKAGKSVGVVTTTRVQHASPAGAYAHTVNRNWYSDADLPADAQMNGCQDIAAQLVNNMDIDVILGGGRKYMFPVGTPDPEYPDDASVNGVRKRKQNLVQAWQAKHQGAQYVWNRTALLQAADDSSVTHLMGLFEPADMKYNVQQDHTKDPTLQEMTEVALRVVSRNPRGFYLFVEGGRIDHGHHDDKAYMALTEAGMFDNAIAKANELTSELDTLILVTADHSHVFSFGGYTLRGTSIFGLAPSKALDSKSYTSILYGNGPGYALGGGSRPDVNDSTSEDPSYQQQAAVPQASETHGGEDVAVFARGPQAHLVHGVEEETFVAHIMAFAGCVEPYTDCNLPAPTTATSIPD
Experiment: BiALP: conversion by bovine intestinal alkaline phosphatase
Assay type: in vitro ADME
Conditions: 2 μM substrate, 100 ng/mL iALP, Tris pH 7.8, 37° C., 60 minutes
Form field: [Compound] (one value per entry).
measured_quantity: [Compound] (nM)

INSERT INTO assay_data (smiles_entry, measured_quantity, readout_unit, result_value) VALUES
  ('COC(=O)N[C@H](C(=O)N[C@@H](Cc1ccc(C#Cc2cnc(N3CC4CCC(C3)N4C3COC3)nc2)cc1)[C@H](CN(Cc1c(F)cc(-c2ccn(C(F)F)n2)cc1F)NC(=O)[C@@H](NC(=O)OC)C(C)(C)C(F)(F)F)OC(=O)CC(C)(C)c1c(CC(=O)N2[C@H](C(=O)O)C[C@@H]3CCCC[C@@H]32)cc(C)cc1OP(=O)(O)O)C(C)(C)C(F)(F)F', '[Compound]', 'nM', 1659.2),
  ('CC[C@H](C)[C@H](NC(=O)Cc1cc(C)cc(OP(=O)(O)O)c1C(C)(C)CC(=O)O[C@@H](CN(Cc1c(F)cc(-c2ccn(C(F)F)n2)cc1F)NC(=O)[C@@H](NC(=O)OC)C(C)(C)C(F)(F)F)[C@H](Cc1ccc(C#Cc2cnc(N3CC4CCC(C3)N4C3COC3)nc2)cc1)NC(=O)[C@@H](NC(=O)OC)C(C)(C)C(F)(F)F)C(=O)O', '[Compound]', 'nM', 2114.6);

###

Form field: log10(EC50) (one value per entry).
Test system: HIV-1 IIIB strain
Assay: MT-4 HIV Wild Type Virus Infection Assay (IIIB Virus)
Format: cell-based
Conditions: Human immunodeficiency virus 1, IIIB, MT4, 120 h, MT-4 cells acutely infected with HIV-1 IIIB, 5 day incubation, Cell-titer glo
measured_quantity: log10(EC50) (log10 of the value in µM)

INSERT INTO assay_data (compound, measured_quantity, result_value) VALUES
  ('COC(=O)N[C@H](C(=O)N[C@@H](Cc1ccc(C#Cc2cnc(N3CC4CCC(C3)N4C3COC3)nc2)cc1)[C@H](CN(Cc1c(F)cc(-c2ccn(C(F)F)n2)cc1F)NC(=O)[C@@H](NC(=O)OC)C(C)(C)C(F)(F)F)OC(=O)CC(C)(C)c1c(CC(=O)Nc2ccccn2)cc(C)cc1OP(=O)(O)O)C(C)(C)C(F)(F)F [Example 13]', 'log10(EC50)', -0.65),
  ('COC(=O)N[C@H](C(=O)N[C@@H](Cc1ccc(C#Cc2cnc(N3CC4CCC(C3)N4C3COC3)nc2)cc1)[C@H](CN(Cc1c(F)cc(-c2ccn(C(F)F)n2)cc1F)NC(=O)[C@@H](NC(=O)OC)C(C)(C)C(F)(F)F)OC(=O)CC(C)(C)c1c(CC(=O)N[C@@]2(C(=O)O)CCOC2)cc(C)cc1OP(=O)(O)O)C(C)(C)C(F)(F)F [Example 29]', 'log10(EC50)', -0.67),
  ('COC(=O)N[C@H](C(=O)N[C@@H](Cc1ccc(C#Cc2cnc(N3CC4CCC(C3)N4C3COC3)nc2)cc1)[C@H](CN(Cc1c(F)cc(-c2ccn(C(F)F)n2)cc1F)NC(=O)[C@@H](NC(=O)OC)C(C)(C)C(F)(F)F)OC(=O)CC(C)(C)c1c(CC(=O)Nc2cccc(C(=O)O)c2)cc(C)cc1OP(=O)(O)O)C(C)(C)C(F)(F)F [Example 14]', 'log10(EC50)', -0.75),
  ('COC(=O)N[C@H](C(=O)N[C@@H](Cc1ccc(C#Cc2cnc(N3CC4CCC(C3)N4C3COC3)nc2)cc1)[C@H](CN(Cc1c(F)cc(-c2ccn(C(F)F)n2)cc1F)NC(=O)[C@@H](NC(=O)OC)C(C)(C)C(F)(F)F)OC(=O)CC(C)(C)c1c(CC(=O)NCC(C)(C)C(=O)O)cc(C)cc1OP(=O)(O)O)C(C)(C)C(F)(F)F [Example 103]', 'log10(EC50)', -0.88),
  ('COC(=O)N[C@H](C(=O)N[C@@H](Cc1ccc(C#Cc2cnc(N3CC4CCC(C3)N4C3COC3)nc2)cc1)[C@H](CN(Cc1c(F)cc(-c2ccn(C(F)F)n2)cc1F)NC(=O)[C@@H](NC(=O)OC)C(C)(C)C(F)(F)F)OC(=O)CC(C)(C)c1c(CC(=O)N(CCC(=O)O)[C@@H](CCC(=O)O)C(=O)O)cc(C)cc1OP(=O)(O)O)C(C)(C)C(F)(F)F [Example 44]', 'log10(EC50)', -0.28),
  ('COC(=O)N[C@H](C(=O)N[C@@H](Cc1ccc(C#Cc2cnc(N3CC4CCC(C3)N4C3COC3)nc2)cc1)[C@H](CN(Cc1c(F)cc(-c2ccn(C(F)F)n2)cc1F)NC(=O)[C@@H](NC(=O)OC)C(C)(C)C(F)(F)F)OC(=O)CC(C)(C)c1c(CC(=O)N2CCC(C(=O)O)CC2C(=O)O)cc(C)cc1OP(=O)(O)O)C(C)(C)C(F)(F)F (stereo partly drawn) [Example 113]', 'log10(EC50)', -0.47),
  ('COC(=O)N[C@H](C(=O)N[C@@H](Cc1ccc(C#Cc2cnc(N3CC4CCC(C3)N4C3COC3)nc2)cc1)[C@H](CN(Cc1c(F)cc(-c2ccn(C(F)F)n2)cc1F)NC(=O)[C@@H](NC(=O)OC)C(C)(C)C(F)(F)F)OC(=O)CC(C)(C)c1c(CC(=O)N(CCCC(=O)O)CCC(=O)O)cc(C)cc1OP(=O)(O)O)C(C)(C)C(F)(F)F [Example 36]', 'log10(EC50)', -1.01),
  ('COC(=O)N[C@H](C(=O)N[C@@H](Cc1ccc(C#Cc2cnc(N3CC4CCC(C3)N4C3COC3)nc2)cc1)[C@H](CN(Cc1c(F)cc(-c2ccn(C(F)F)n2)cc1F)NC(=O)[C@@H](NC(=O)OC)C(C)(C)C(F)(F)F)OC(=O)OCOC(=O)CC(C)(C)c1c(CC(=O)NCCS(=O)(=O)O)cc(C)cc1OP(=O)(O)O)C(C)(C)C(F)(F)F [Example 21]', 'log10(EC50)', -2.44),
  ('COC(=O)N[C@H](C(=O)N[C@@H](Cc1ccc(C#Cc2cnc(N3CC4CCC(C3)N4C3COC3)nc2)cc1)[C@H](CN(Cc1c(F)cc(-c2ccn(C(F)F)n2)cc1F)NC(=O)[C@@H](NC(=O)OC)C(C)(C)C(F)(F)F)OC(=O)CC(C)(C)c1c(CC(=O)N[C@@H](CS(=O)(=O)O)C(=O)O)cc(C)cc1OP(=O)(O)O)C(C)(C)C(F)(F)F [Example 32]', 'log10(EC50)', -0.86),
  ('COC(=O)N[C@H](C(=O)N[C@@H](Cc1ccc(C#Cc2cnc(N3CC4CCC(C3)N4C3COC3)nc2)cc1)[C@H](CN(Cc1c(F)cc(-c2ccn(C(F)F)n2)cc1F)NC(=O)[C@@H](NC(=O)OC)C(C)(C)C(F)(F)F)OC(=O)CC(C)(C)c1c(CC(=O)N2CCC[C@H]2C(=O)O)cccc1OP(=O)(O)O)C(C)(C)C(F)(F)F [Example 46]', 'log10(EC50)', -0.72),
  ('COC(=O)N[C@H](C(=O)N[C@@H](Cc1ccc(C#Cc2cnc(N3CC4CCC(C3)N4C3COC3)nc2)cc1)[C@H](CN(Cc1c(F)cc(-c2ccn(C(F)F)n2)cc1F)NC(=O)[C@@H](NC(=O)OC)C(C)(C)C(F)(F)F)OC(=O)CC(C)(C)c1c(CC(=O)N2CCN(CC(=O)O)CC2)cc(C)cc1OP(=O)(O)O)C(C)(C)C(F)(F)F [Example 82]', 'log10(EC50)', -0.47),
  ('COC(=O)N[C@H](C(=O)N[C@@H](Cc1ccc(C#Cc2cnc(N3CC4CCC(C3)N4C3COC3)nc2)cc1)[C@H](CN(Cc1c(F)cc(-c2ccn(C(F)F)n2)cc1F)NC(=O)[C@@H](NC(=O)OC)C(C)(C)C(F)(F)F)OC(=O)CC(C)(C)c1c(CC(=O)NCC(=O)O)cc(C)cc1OP(=O)(O)O)C(C)(C)C(F)(F)F [Example 74]', 'log10(EC50)', -0.71);

###

Assay: Solubility in FaSSIF
Details: 23 °C, pH 6.5, fassif, thermodynamic from solid
measured_quantity: solubility at 2 h (µg/mL)

INSERT INTO measurements (compound, measured_quantity, relation_symbol, result_value) VALUES
  ('COC(=O)N[C@H](C(=O)N[C@@H](Cc1ccc(C#Cc2cnc(N3CC4CCC(C3)N4C3COC3)nc2)cc1)[C@H](CN(Cc1c(F)cc(-c2ccn(C(F)F)n2)cc1F)NC(=O)[C@@H](NC(=O)OC)C(C)(C)C(F)(F)F)OC(=O)CC(C)(C)c1c(CC(=O)N[C@H]2C[C@H](C(=O)O)C2)cc(C)cc1OP(=O)(O)O)C(C)(C)C(F)(F)F', 'solubility at 2 h', '=', 1520),
  ('COC(=O)N[C@H](C(=O)N[C@@H](Cc1ccc(C#Cc2cnc(N3CC4CCC(C3)N4C3COC3)nc2)cc1)[C@H](CN(Cc1c(F)cc(-c2ccn(C(F)F)n2)cc1F)NC(=O)[C@@H](NC(=O)OC)C(C)(C)C(F)(F)F)OC(=O)CC(C)(C)c1c(CC(=O)N(C)CCCC(=O)O)cc(C)cc1OP(=O)(O)O)C(C)(C)C(F)(F)F', 'solubility at 2 h', '<', 1000),
  ('COC(=O)N[C@H](C(=O)N[C@@H](Cc1ccc(C#Cc2ccc(N3CC4CCC(C3)N4C3COC3)nc2)cc1)[C@H](CN(Cc1c(F)cc(-c2ccn(C(F)F)n2)cc1F)NC(=O)[C@@H](NC(=O)OC)C(C)(C)C(F)(F)F)OC(=O)CC(C)(C)c1c(CC(=O)Nc2cccc(C(=O)OO)c2)cc(C)cc1CP(=O)(O)O)C(C)(C)C(F)(F)F', 'solubility at 2 h', '<', 1000),
  ('COC(=O)N[C@H](C(=O)N[C@@H](Cc1ccc(C#Cc2cnc(N3CC4CCC(C3)N4C3COC3)nc2)cc1)[C@H](CN(Cc1c(F)cc(-c2ccn(C(F)F)n2)cc1F)NC(=O)[C@@H](NC(=O)OC)C(C)(C)C(F)(F)F)OC(=O)CC(C)(C)c1c(CC(=O)N2CCN(S(C)(=O)=O)CC2)cc(C)cc1OP(=O)(O)O)C(C)(C)C(F)(F)F', 'solubility at 2 h', '<', 1000),
  ('COC(=O)N[C@H](C(=O)N[C@@H](Cc1ccc(C#Cc2cnc(N3CC4CCC(C3)N4C3COC3)nc2)cc1)[C@H](CN(Cc1c(F)cc(-c2ccn(C(F)F)n2)cc1F)NC(=O)[C@@H](NC(=O)OC)C(C)(C)C(F)(F)F)OC(=O)CC(C)(C)c1c(CC(=O)NC(CCCC(=O)O)C(=O)O)cc(C)cc1OP(=O)(O)O)C(C)(C)C(F)(F)F (stereo partly drawn)', 'solubility at 2 h', '=', 4020),
  ('COC(=O)N[C@H](C(=O)N[C@@H](Cc1ccc(C#Cc2cnc(N3CC4CCC(C3)N4C3COC3)nc2)cc1)[C@H](CN(Cc1c(F)cc(-c2ccn(C(F)F)n2)cc1F)NC(=O)[C@@H](NC(=O)OC)C(C)(C)C(F)(F)F)OC(=O)CC(C)(C)c1c(CC(=O)N[C@@H](CC(N)=O)C(=O)O)cc(C)cc1OP(=O)(O)O)C(C)(C)C(F)(F)F', 'solubility at 2 h', '=', 2390);

Where do the numbers come from? From patent US20250051375A1.
